# Test system: BV-173
# Method: cell viability (% survival relative to DMSO control, bortezomib = 0%); higher = less cytotoxic
# Measurement conditions: 1 nM; 72 h
cell viability listing for selected molecules.
Reply with just the number (in %).

// Fc1ccc(CNc2ncnc3ccc(F)cc23)cc1 [Spautin 1] : cell viability value = 98.3

New cases:
// Cc1nc(-c2ccc(OCC(C)C)c(C#N)c2)sc1C(=O)O [Febuxostat] : cell viability value = 103

// O=c1[nH]c(=O)n([C@H]2C[C@H](O)[C@@H](CO)O2)cc1I [Idoxuridine] : cell viability value = 102

// CC(C)(F)C[C@H](N[C@@H](c1ccc(-c2ccc(S(C)(=O)=O)cc2)cc1)C(F)(F)F)C(=O)NC1(C#N)CC1 [Odanacatib] : cell viability value = 85.1

// Nc1ccn([C@@H]2O[C@H](CO)[C@@H](O)C2(F)F)c(=O)n1 [Gemcitabine] : cell viability value = 83.3
